Listed here are molecules together with their documented inhibition.
# assay.text: NOD1 signaling inhibitors, primary screen, cell-based, luminescence, uHTS (AID 1578);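 note: HEK-293T reporter cells stimulated with the NOD1 agonist gamma-tri-DAP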
# condition.context: NOD1-driven NF-kB luciferase reporter cells, at 4 µM, active compounds read high
About 3,000 (1%) of roughly 290,000 compounds were called active. For the sample, actives were picked, then their nearest neighbours and some compounds at random.
The response must be a number in % with no trailing unit.

Cc1cccc(NC(=O)C2COc3ccccc3O2)c1 (stereo unspecified) :: -23
O=c1c2ccccc2cnn1CCOc1ccccc1 :: 67.1
O=C(O)c1c2c(nc3ccccc13)/C(=C/c1ccc(O)cc1)CCC2 :: -23.9
CCOC(=O)c1[nH]c2ccccc2c1NC(C)=O :: 2.4

Lookup: // query inhibition value for entry O=c1c2ccccc2cnn1CCOc1cccc(Br)c1
Found: -51.9

Lookup: Same question for C=CCn1c(C)cc(C2=NNC(=NCc3ccccc3)SC2)c1C please.
Found: -61.6

Lookup: Same question for O=C(NC1=NCCS1)C1COc2ccccc2O1 (stereo unspecified) please.
Found: 82.7

Lookup: Same question for C=CCn1c(C)cc(C2=NNC(=NC(C)(C)C)SC2)c1C please.
Found: 65

Lookup: Same question for C=CCN=C1NN=C(c2cc(C)n(CCOC)c2C)CS1 please.
Found: 88.5

Lookup: Same question for COc1cc(C(=O)N2CCCCCCC2)ccc1OC1CCN(C(C)=O)CC1 please.
Found: -27.7

Lookup: Same question for COCCN=C1NN=C(c2cc(C)n(CC3CCCO3)c2C)CS1 (stereo unspecified) please.
Found: 9.1

Lookup: Same question for O=C(Nc1nncs1)C1COc2ccccc2O1 (stereo unspecified) please.
Found: -18.9

Lookup: Same question for O=C(CCl)Nc1cccc(S(=O)(=O)NC2=NCCC2)c1 please.
Found: 64.9

Lookup: Same question for O=C(O)CCCCCNC(=O)CCn1cnc2ccccc2c1=O please.
Found: 21.1

Lookup: Same question for COC(=O)c1cccc(NC(=O)C2COc3ccccc3O2)c1 (stereo unspecified) please.
Found: -42.9

---

Listed here are molecules together with their documented inhibition.
# assay.text: NOD1 signaling inhibitors, primary screen, cell-based, luminescence, uHTS (AID 1578);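 note: HEK-293T reporter cells stimulated with the NOD1 agonist gamma-tri-DAP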
# condition.context: NOD1-driven NF-kB luciferase reporter cells, at 4 µM, active compounds read high
Screen size: about 290,000 compounds; about 3,000 (1%) were called active. For the sample, actives were picked, then their nearest neighbours and some compounds at random.
The response must be a number in % with no trailing unit.

CCOc1cc(/C=N\Nc2ncc(F)c(N3CCOCC3)n2)ccc1Oc1nc(Cl)ncc1F :: 19.9

Lookup: // query inhibition value for entry O=[N+]([O-])c1ccccc1C1Nc2cccc3cccc(c23)N1
Found: 105

Lookup: Same question for O=S(=O)(NC1CC1)c1cccc(S(=O)(=O)N2CCCC2)c1 please.
Found: -9.9

Lookup: Same question for COC(=O)CCCCC1SCC2NC(=O)NC21O (centres undefined) please.
Found: -2.5

---

# assay.text: NOD1 signaling inhibitors, primary screen, cell-based, luminescence, uHTS (AID 1578);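 note: HEK-293T reporter cells stimulated with the NOD1 agonist gamma-tri-DAP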
# condition.context: NOD1-driven NF-kB luciferase reporter cells, at 4 µM, active compounds read high
About 3,000 (1%) of roughly 290,000 compounds were called active. What follows is part of a selection rich in actives, with near analogues and random picks from the rest.
Listed here are compounds together with their documented inhibition.
The response must be a number in % with no trailing unit.

# count of solved cases: 5
O=C(NCC(O)c1ccc2ccccc2c1)c1c(F)cccc1F (stereo unspecified) :: -2.4
Cc1ccc(Nc2nc(N)nc(CN3CCCCCC3)n2)c(C)c1 :: -23.1
Cc1ccc(Nc2nc(N)nc(CSc3nccn3C)n2)c(C)c1 :: -29.9
Cc1cc(C)nc(NS(=O)(=O)c2ccc(NC(=O)c3ccc4c(c3)OCCO4)cc2)n1 :: -42.8
COC(=O)c1cc(-c2ccccc2)sc1NC(=O)c1cc(C)on1 :: -4.3

Okay, next one:
Lookup: // query inhibition value for entry CCCCN(C)Cc1c(C)[nH]c2c(Cl)cccc2c1=O
Found: -15

---

# assay.text: NOD1 signaling inhibitors, primary screen, cell-based, luminescence, uHTS (AID 1578);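 note: HEK-293T reporter cells stimulated with the NOD1 agonist gamma-tri-DAP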
# condition.context: NOD1-driven NF-kB luciferase reporter cells, at 4 µM, active compounds read high
Out of some 290,000 compounds screened, about 3,000 (1%) were called active. Only a selection was taken, and actives are over-represented in it overall.
Listed here are molecules together with their documented inhibition.
The response must be a number in % with no trailing unit.

O=C(CSc1ccc2nnc(-c3ccncc3)n2n1)Nc1ccc2c(c1)OCCO2 :: 9.6
COc1cccc2c1-c1c(O)cccc1C2=O :: -18.2
Cc1ccc(-c2nnn(Cc3nc(N)nc(N4CCOCC4)n3)n2)cc1 :: 5.1
Cc1nc2ccccc2c(=O)n1N :: -11.6
CCOc1ccc(Nc2nc(NCC(=O)O)nc(N)c2[N+](=O)[O-])cc1 :: 0.9
Cc1ccc(C)n1-n1c(C)nc2sc(-c3ccccc3)cc2c1=O :: -14.6

Lookup: // query inhibition value for entry COCCNC(=S)N/N=C/c1ccccc1C(=O)O
Found: -17.1

Lookup: Same question for CCC/C(O)=C1\C(=O)CCCC1=NCCc1c(C)[nH]c2ccc(C)cc12 please.
Found: -7.7

Lookup: Same question for Cc1ccc(-n2[nH]c(C)c(C=NC34CN5CN(CN(C5)C3)C4)c2=O)cc1C please.
Found: 9.5

Lookup: Same question for CC(=O)Nc1cccc(NC(=O)COc2ccccc2C)c1 please.
Found: 40.3

Lookup: Same question for CC1(C)C(C=C(Cl)Cl)C1C(=O)N/N=C/c1ccccc1F (configuration not stated) please.
Found: 80.1

Lookup: Same question for Cc1cccc(C)c1OCC(=O)Nc1cccc(C(=O)O)c1 please.
Found: -10.3

Lookup: Same question for CCOc1ccc(NC(=O)c2cccc(NC(=O)c3ccccc3)c2)cc1 please.
Found: 4.1

Lookup: Same question for CCn1nc([N+](=O)[O-])c(C(C#N)c2nc3ccccc3n2C)c(Cl)c1=O (configuration not stated) please.
Found: 32

Lookup: Same question for Cn1nc([N+](=O)[O-])c(C(C#N)c2nc3ccccc3n2C)c(Cl)c1=O (configuration not stated) please.
Found: 23.7

Lookup: Same question for CCOc1ccc(-c2c(C(=O)N/N=C/c3ccco3)nnn2-c2nonc2N)cc1 please.
Found: -7.1

Lookup: Same question for Cc1ccc(C(=O)Nc2cc3ccccc3oc2=O)cc1 please.
Found: 85.5

Lookup: Same question for C[C@@H]1NC(=O)[C@H](CCC(=O)O)NC(=O)c2cc([N+](=O)[O-])cc(F)c2NCCC[C@@H](C(N)=O)NC1=O please.
Found: -18.8

Lookup: Same question for Cn1c(-c2ccccc2)cnc1SCC(N)=O please.
Found: 0.4

Lookup: Same question for COc1cc(OC)cc(C(=O)N[C@H](C(=O)OCC(=O)Nc2ccc(F)c(F)c2)C(C)C)c1 please.
Found: -11.6

Lookup: Same question for CCCn1nc([N+](=O)[O-])c(C(C#N)c2nc3ccccc3s2)c(Cl)c1=O (configuration not stated) please.
Found: 63.6

Lookup: Same question for CCOC(=O)c1cccc(NC(=O)Nc2ccc(OCC)cc2)c1 please.
Found: -13.8

Lookup: Same question for Cn1c(=O)c2nc(Cl)c(-c3ccccc3)nc2n(C)c1=O please.
Found: -30.8

Lookup: Same question for COc1ccc(-c2nsc3c(N4CCCCC4C)ncnc23)cc1 (configuration not stated) please.
Found: 77.6

---

Listed here are molecules together with their documented inhibition.
# assay.text: NOD1 signaling inhibitors, primary screen, cell-based, luminescence, uHTS (AID 1578);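 note: HEK-293T reporter cells stimulated with the NOD1 agonist gamma-tri-DAP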
# condition.context: NOD1-driven NF-kB luciferase reporter cells, at 4 µM, active compounds read high
The campaign covered roughly 290,000 compounds. About 3,000 (1%) were called active. The sample holds actives, similar compounds and a random draw of the others, so the mix is not that of the screen.
The response must be a number in % with no trailing unit.

# count of solved cases: 10
COc1ccc(C(=O)Nn2c(SCC(=O)NC3CCCCC3)nc3ccccc3c2=O)cc1 :: 88
COCCn1c(C)cc(C(=O)COC(=O)c2ccc(Br)o2)c1C :: -30.4
Cc1c(CBr)[n+](=O)c2c(n1[O-])C(Br)CCC2Br (configuration not stated) :: -9.7
COC(=O)c1cccc(NC(=O)/C=C/c2ccc3c(c2)OCO3)c1 :: 69
O=C(Nc1ccc(F)cc1)Nc1cc(OCC(F)(F)F)cc(OCC(F)(F)F)c1 :: 84.5
O=C(NCCSc1ccc(Br)cc1)c1ccc2nc[nH]c2c1 :: -38.2
CN1CCN(c2ccc(-c3ccc4ccccc4n3)cc2)CC1 :: 90.2
COc1ccc(NC(=O)Cn2ncn3nc(-c4ccc(OC)cc4)cc3c2=O)cc1 :: -72
CCOC(=O)c1cnc(SCC(=O)Nc2ccc(N3CCOCC3)cc2)nc1N :: -15
Cc1cc(C(=O)COc2ccc3ccc(=O)oc3c2)c(C)n1Cc1cccs1 :: 22.1

Lookup: // query inhibition value for entry COc1ccc2cc(CCl)c(Cl)nc2c1
Found: 70.1

Lookup: Same question for CCOC(=O)c1cnn(-c2nc(SC)nc3sc4c(c23)CCCC4)c1N please.
Found: -0.3

Lookup: Same question for Cc1ccc(C(=O)Nc2cccc(C(=O)O)c2)cc1 please.
Found: 73.3

Lookup: Same question for COc1ccc2cc(C#N)c(Cl)nc2c1 please.
Found: -29.7

From: PubChem BioAssay AID1578
